Sourced from the kinase profiling compilation of Christmann-Franck et al. (2016)

kinase still bound, per cent of control for assorted compounds
- testSystem: DDR2 (human) (UniProt Q16832)
- Sequence (Q16832 whole entry, looked up): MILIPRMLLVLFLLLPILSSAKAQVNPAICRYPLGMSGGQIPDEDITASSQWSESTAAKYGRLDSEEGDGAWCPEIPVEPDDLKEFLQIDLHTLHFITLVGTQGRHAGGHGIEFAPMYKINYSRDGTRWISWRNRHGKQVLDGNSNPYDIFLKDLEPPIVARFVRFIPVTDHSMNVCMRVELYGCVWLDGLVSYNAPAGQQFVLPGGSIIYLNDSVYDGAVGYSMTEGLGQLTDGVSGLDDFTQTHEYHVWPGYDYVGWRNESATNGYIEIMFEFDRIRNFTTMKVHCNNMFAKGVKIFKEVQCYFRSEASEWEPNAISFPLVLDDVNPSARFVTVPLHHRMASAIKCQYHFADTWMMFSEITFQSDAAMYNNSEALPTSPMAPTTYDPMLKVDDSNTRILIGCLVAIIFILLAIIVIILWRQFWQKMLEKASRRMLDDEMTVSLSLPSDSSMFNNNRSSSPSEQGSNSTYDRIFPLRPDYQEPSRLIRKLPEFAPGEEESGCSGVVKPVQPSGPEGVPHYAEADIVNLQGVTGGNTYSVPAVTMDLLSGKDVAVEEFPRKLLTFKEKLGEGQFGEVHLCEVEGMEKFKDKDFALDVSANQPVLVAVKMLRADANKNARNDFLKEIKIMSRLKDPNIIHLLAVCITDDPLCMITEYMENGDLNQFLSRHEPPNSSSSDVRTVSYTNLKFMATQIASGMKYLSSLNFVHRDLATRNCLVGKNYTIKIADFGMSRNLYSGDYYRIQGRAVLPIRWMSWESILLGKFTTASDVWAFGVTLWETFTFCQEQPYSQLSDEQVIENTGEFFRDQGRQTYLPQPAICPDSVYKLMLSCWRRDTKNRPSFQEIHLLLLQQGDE
- protocolSummary: KINOMEscan competition binding
- runConditions: compound 10.0 µM
Use % as the unit, but write only the number.

Consider the following illustrative entries.
compound: CCOc1cc2ncc(C#N)c(Nc3ccc(OCc4ccccn4)c(Cl)c3)c2cc1NC(=O)/C=C/CN(C)C
experimentalValue: 100

compound: C=CC(=O)Nc1cccc(Oc2nc(Nc3ccc(N4CCN(C)CC4)cc3OC)ncc2Cl)c1
experimentalValue: 100

compound: O=C(O)c1ccc(Nc2ncc3c(n2)-c2ccc(Cl)cc2C(c2c(F)cccc2F)=NC3)cc1
experimentalValue: 3.6

compound: Cc1ccc2nc(NCCN)c3ncc(C)n3c2c1
experimentalValue: 100

compound: O=C(NOC[C@H](O)CO)c1ccc(F)c(F)c1Nc1ccc(I)cc1F
experimentalValue: 100

compound: CCN1CCN(Cc2ccc(Nc3ncc4c(n3)N(C)c3ccccc3C(=O)N4C)cc2C(F)(F)F)CC1
experimentalValue: 50

compound: OCCCNc1cc(-c2ccnc(Nc3cccc(Cl)c3)n2)ccn1
experimentalValue: 100

compound: CCCS(=O)(=O)Nc1ccc(F)c(C(=O)c2c[nH]c3ncc(-c4ccc(Cl)cc4)cc23)c1F
experimentalValue: 35

Respond only with kinase still bound, per cent of control recorded for CCC(=O)N1CCN(c2ccc(-n3c(=O)ccc4cnc5ccc(-c6cnc7ccccc7c6)cc5c43)cc2C(F)(F)F)CC1
100

Respond only with kinase still bound, per cent of control recorded for C=CC(=O)Nc1cccc(Nc2nc(N[C@H]3CC[C@H](N(C)C)CC3)nc3c2ncn3C(C)C)c1
100

Respond only with kinase still bound, per cent of control recorded for COc1cc(C(=O)NC2CCN(C)CC2)ccc1Nc1ncc2c(n1)N(C1CCCC1)C(C)CC(=O)N2C (stereo unspecified)
100

Respond only with kinase still bound, per cent of control recorded for Nc1ccc(-c2ccc3ncc4ccc(=O)n(-c5cccc(C(F)(F)F)c5)c4c3c2)cn1
99

Respond only with kinase still bound, per cent of control recorded for COc1cc(N2CCN(C)CC2)ccc1Nc1nc(N)c(C(=O)c2c(Cl)cccc2Cl)s1
100

Respond only with kinase still bound, per cent of control recorded for Cn1c(=O)n(-c2ccc(C(C)(C)C#N)cc2)c2c3cc(-c4cnc5ccccc5c4)ccc3ncc21
100

Respond only with kinase still bound, per cent of control recorded for CC[C@@H]1C(=O)N(C)c2cnc(Nc3ccc(C(=O)NC4CCN(C)CC4)cc3OC)nc2N1C1CCCC1
100

Respond only with kinase still bound, per cent of control recorded for C=CC(=O)Nc1cc(NC(=O)c2ccc(C)c(NC(=O)c3ccno3)c2)cc(C(F)(F)F)c1
40

###

- testSystem: PLK3 (human)
- protocolSummary: KINOMEscan competition binding
- runConditions: compound 10.0 µM
experimentalEndpoint: kinase still bound, per cent of control (%)
Use % as the unit, but write only the number.

Respond only with kinase still bound, per cent of control recorded for OCCCNc1cc(-c2ccnc(Nc3cccc(Cl)c3)n2)ccn1
100

Respond only with kinase still bound, per cent of control recorded for Cc1cc([C@@H](C)Nc2ccccc2C(=O)O)c2nc(N3CCOCC3)cc(=O)n2c1
89

Respond only with kinase still bound, per cent of control recorded for C=CC(=O)Nc1cccc(Nc2nc(N[C@H]3CC[C@H](N(C)C)CC3)nc3c2ncn3C(C)C)c1
100

Respond only with kinase still bound, per cent of control recorded for Cc1ccc2nc(NCCN)c3ncc(C)n3c2c1
94

Respond only with kinase still bound, per cent of control recorded for N#Cc1c(NC(=O)c2cccc3ccccc23)sc2c1CCCC2
100

Respond only with kinase still bound, per cent of control recorded for Cn1c(=O)n(-c2ccc(C(C)(C)C#N)cc2)c2c3cc(-c4cnc5ccccc5c4)ccc3ncc21
100

Respond only with kinase still bound, per cent of control recorded for C[C@@H](Oc1cc(-n2cnc3ccc(CN4CCN(C)CC4)cc32)sc1C(N)=O)c1ccccc1C(F)(F)F
3.6

Respond only with kinase still bound, per cent of control recorded for CC[C@@H]1C(=O)N(C)c2cnc(Nc3ccc(C(=O)NC4CCN(C)CC4)cc3OC)nc2N1C1CCCC1
0

Respond only with kinase still bound, per cent of control recorded for Cc1ccc(C(=O)Nc2cccc(C(F)(F)F)c2)cc1Nc1cncc(C(N)=O)c1
100

###

- testSystem: STK10 (human)
- protocolSummary: KINOMEscan competition binding
- runConditions: compound 10.0 µM
kinase still bound, per cent of control for assorted compounds
Use % as the unit, but write only the number.

Consider the following illustrative entries.
compound: Nc1ccc(-c2ccc3ncc4ccc(=O)n(-c5cccc(C(F)(F)F)c5)c4c3c2)cn1
testSystem: STK10 (human)
unitsText: %
kinase still bound, per cent of control: 100

compound: CN(C)C/C=C/C(=O)Nc1cccc(Nc2ncc3c(n2)N(C)c2ccccc2C(=O)N3C)c1
testSystem: STK10 (human)
unitsText: %
kinase still bound, per cent of control: 30

compound: Cn1c(=O)n(-c2ccc(C(C)(C)C#N)cc2)c2c3cc(-c4cnc5ccccc5c4)ccc3ncc21
testSystem: STK10 (human)
unitsText: %
kinase still bound, per cent of control: 100

compound: COc1cc(C(=O)NC2CCN(C)CC2)ccc1Nc1ncc2c(n1)N(C1CCCC1)C(C)CC(=O)N2C (stereo not given)
testSystem: STK10 (human)
unitsText: %
kinase still bound, per cent of control: 29

# ---- query compound ----
Respond only with kinase still bound, per cent of control recorded for Cc1cc([C@@H](C)Nc2ccccc2C(=O)O)c2nc(N3CCOCC3)cc(=O)n2c1
100

###

- testSystem: PIP5K1C (human)
- protocolSummary: KINOMEscan competition binding
- runConditions: compound 10.0 µM
Kindly note that classification relies on kinase still bound, per cent of control with these boundaries: interval 1 = under 40%, interval 2 = from 40% up to 90%, interval 3 = 90% and over

Reference set (5 entries):
structure: C=CC(=O)Nc1cc(NC(=O)c2ccc(C)c(NC(=O)c3ccno3)c2)cc(C(F)(F)F)c1
categoryLabel: interval 3
//
structure: Cc1ccc(NC(=O)c2cccc(C(C)(C)C#N)c2)cc1Nc1ccc2ncn(C)c(=O)c2c1
categoryLabel: interval 2
//
structure: N#Cc1c(NC(=O)c2cccc3ccccc23)sc2c1CCCC2
categoryLabel: interval 3
//
structure: CN(C)C/C=C/C(=O)Nc1cccc(Nc2ncc3c(n2)N(C)c2ccccc2C(=O)N3C)c1
categoryLabel: interval 1
//
structure: CCN1CCN(Cc2ccc(Nc3ncc4c(n3)N(C)c3ccccc3C(=O)N4C)cc2C(F)(F)F)CC1
categoryLabel: interval 1

Textbook exercise: identify the category of the molecule given here, O=C(NOC[C@H](O)CO)c1ccc(F)c(F)c1Nc1ccc(I)cc1F , according to its measured value.
interval 3

Textbook exercise: identify the category of the molecule given here, COc1cc(N2CCN(C)CC2)ccc1Nc1nc(N)c(C(=O)c2c(Cl)cccc2Cl)s1 , according to its measured value.
interval 2

Textbook exercise: identify the category of the molecule given here, C=CC(=O)Nc1cccc(Nc2nc(N[C@H]3CC[C@H](N(C)C)CC3)nc3c2ncn3C(C)C)c1 , according to its measured value.
interval 3

###

kinase still bound, per cent of control for assorted compounds
- testSystem: KIT (human) (UniProt P10721)
- Sequence (P10721 whole entry, looked up): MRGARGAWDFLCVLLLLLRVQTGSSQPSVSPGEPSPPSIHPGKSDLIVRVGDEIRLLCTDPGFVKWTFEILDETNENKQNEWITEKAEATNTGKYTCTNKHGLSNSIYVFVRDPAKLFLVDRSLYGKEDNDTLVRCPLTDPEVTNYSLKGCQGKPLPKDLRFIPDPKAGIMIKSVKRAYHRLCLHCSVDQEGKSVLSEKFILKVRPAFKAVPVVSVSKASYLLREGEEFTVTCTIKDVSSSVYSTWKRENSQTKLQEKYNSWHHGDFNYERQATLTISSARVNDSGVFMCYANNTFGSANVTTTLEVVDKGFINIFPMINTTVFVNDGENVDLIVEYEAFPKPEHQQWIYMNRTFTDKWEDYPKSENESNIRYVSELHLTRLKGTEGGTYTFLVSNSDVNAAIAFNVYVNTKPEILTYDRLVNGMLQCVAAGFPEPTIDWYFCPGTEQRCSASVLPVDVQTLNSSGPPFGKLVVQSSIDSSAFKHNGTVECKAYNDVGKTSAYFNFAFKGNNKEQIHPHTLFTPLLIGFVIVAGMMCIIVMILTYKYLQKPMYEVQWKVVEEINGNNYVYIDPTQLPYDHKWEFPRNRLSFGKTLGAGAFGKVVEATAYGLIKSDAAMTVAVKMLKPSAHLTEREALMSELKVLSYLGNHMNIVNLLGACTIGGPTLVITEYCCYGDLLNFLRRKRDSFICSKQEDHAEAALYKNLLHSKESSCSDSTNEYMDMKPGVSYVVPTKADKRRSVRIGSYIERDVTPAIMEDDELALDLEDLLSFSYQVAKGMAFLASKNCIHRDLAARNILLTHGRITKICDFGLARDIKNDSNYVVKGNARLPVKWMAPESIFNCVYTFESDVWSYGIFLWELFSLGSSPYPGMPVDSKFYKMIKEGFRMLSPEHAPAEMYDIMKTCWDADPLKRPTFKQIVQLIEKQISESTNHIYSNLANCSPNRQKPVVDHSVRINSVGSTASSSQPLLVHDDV
- protocolSummary: KINOMEscan competition binding
- runConditions: compound 10.0 µM
Use % as the unit, but write only the number.

Respond only with kinase still bound, per cent of control recorded for COc1cc(C(=O)NC2CCN(C)CC2)ccc1Nc1ncc2c(n1)N(C1CCCC1)C(C)CC(=O)N2C (centres undefined)
100

###

- testSystem: PIP4K2C (human) (UniProt Q8TBX8)
- Sequence (Q8TBX8 whole entry, looked up): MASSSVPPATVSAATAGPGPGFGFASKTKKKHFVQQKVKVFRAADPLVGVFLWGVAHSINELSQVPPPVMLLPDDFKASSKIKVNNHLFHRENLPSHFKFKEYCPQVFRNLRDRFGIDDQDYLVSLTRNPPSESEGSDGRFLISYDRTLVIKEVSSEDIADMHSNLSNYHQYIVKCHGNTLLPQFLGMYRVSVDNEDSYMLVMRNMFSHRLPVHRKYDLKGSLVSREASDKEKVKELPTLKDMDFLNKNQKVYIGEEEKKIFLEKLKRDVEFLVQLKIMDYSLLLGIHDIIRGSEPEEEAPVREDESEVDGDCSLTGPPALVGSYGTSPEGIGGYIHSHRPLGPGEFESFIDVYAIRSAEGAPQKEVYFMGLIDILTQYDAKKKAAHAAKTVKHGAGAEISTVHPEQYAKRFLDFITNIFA
- protocolSummary: KINOMEscan competition binding
- runConditions: compound 10.0 µM
experimentalEndpoint: kinase still bound, per cent of control (%)
Use % as the unit, but write only the number.

Respond only with kinase still bound, per cent of control recorded for O=C(NOC[C@H](O)CO)c1ccc(F)c(F)c1Nc1ccc(I)cc1F
100

Respond only with kinase still bound, per cent of control recorded for C[C@@H](Oc1cc(-n2cnc3ccc(CN4CCN(C)CC4)cc32)sc1C(N)=O)c1ccccc1C(F)(F)F
62

Respond only with kinase still bound, per cent of control recorded for Cc1ccc(NC(=O)c2cccc(C(C)(C)C#N)c2)cc1Nc1ccc2ncn(C)c(=O)c2c1
100

###

- testSystem: PAK3 (human) (UniProt O75914)
- Sequence (O75914 whole entry, looked up): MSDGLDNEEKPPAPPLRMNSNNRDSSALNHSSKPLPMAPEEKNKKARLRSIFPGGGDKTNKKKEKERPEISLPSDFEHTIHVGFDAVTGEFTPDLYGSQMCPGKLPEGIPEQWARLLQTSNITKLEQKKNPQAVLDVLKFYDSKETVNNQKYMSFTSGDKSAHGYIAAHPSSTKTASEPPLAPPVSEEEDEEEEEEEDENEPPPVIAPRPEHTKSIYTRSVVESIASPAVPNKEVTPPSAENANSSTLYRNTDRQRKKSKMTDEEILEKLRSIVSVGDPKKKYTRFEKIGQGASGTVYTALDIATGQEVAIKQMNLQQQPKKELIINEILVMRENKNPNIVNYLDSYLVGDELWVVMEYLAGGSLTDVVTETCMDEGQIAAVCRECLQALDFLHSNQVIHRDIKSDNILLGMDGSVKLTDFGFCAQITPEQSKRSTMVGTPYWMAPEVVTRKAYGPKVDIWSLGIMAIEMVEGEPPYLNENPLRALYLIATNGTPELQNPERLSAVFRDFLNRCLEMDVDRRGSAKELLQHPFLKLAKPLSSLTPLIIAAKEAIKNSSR
- protocolSummary: KINOMEscan competition binding
- runConditions: compound 10.0 µM
experimentalEndpoint: kinase still bound, per cent of control (%)
Use % as the unit, but write only the number.

Determine reported kinase still bound, per cent of control for O=C(NC1CC1)c1cccc(-c2ccc3c(NC(=O)C4CC4)n[nH]c3c2)c1 ; test system: PAK3 (human) (UniProt O75914).
60

Determine reported kinase still bound, per cent of control for O=C(O)c1ccc(Nc2ncc3c(n2)-c2ccc(Cl)cc2C(c2c(F)cccc2F)=NC3)cc1 ; test system: PAK3 (human) (UniProt O75914).
52

Determine reported kinase still bound, per cent of control for CCCS(=O)(=O)Nc1ccc(F)c(C(=O)c2c[nH]c3ncc(-c4ccc(Cl)cc4)cc23)c1F ; test system: PAK3 (human) (UniProt O75914).
69

Determine reported kinase still bound, per cent of control for Cn1c(=O)n(-c2ccc(C(C)(C)C#N)cc2)c2c3cc(-c4cnc5ccccc5c4)ccc3ncc21 ; test system: PAK3 (human) (UniProt O75914).
100
